experiment: Toxicity liver stage against HepG2, at 10uM; assay type: cell-based; set-up: test concentration 10 uM, cell line HepG2-A16-CD81EGFP; settings: human, HepG2-A16-CD81EGFP cells; read-out: INHIBITION
As shown below, each of these compounds has a reported cytotoxicity at 10 µM value.
parameter-measured: cytotoxicity at 10 µM (%)

{"compound": "Cc1cc(CNc2ccc3nc(C4CC4)sc3c2)no1", "readout-value": 0.981}
{"compound": "Cc1nc(C)n(CC2CCCN(CC(=O)Nc3nnc(C)s3)C2)n1 (stereo unspecified)", "readout-value": -18.9}
{"compound": "CCN(Cc1cc(Cl)ccc1OC)Cc1ncnn1CC", "readout-value": 3.9}
{"compound": "COc1cc(N2C[C@@H](C)[C@](O)(C3CC3)C2)nc(N)n1", "readout-value": 0.929}
{"compound": "O=C(Nc1ccccc1OC(F)F)C1=NN(c2ccccc2)C(=O)CN1", "readout-value": -3.58}
{"compound": "CNC(=O)c1cnc2c(C)csc2c1", "readout-value": -22.3}
{"compound": "CCN1CCN(CC(O)c2ccc(OC(F)(F)F)cc2)CC1 (stereo unspecified)", "readout-value": -4.47}
{"compound": "Fc1ccccc1CN1CCCC(NC2CCOCC2)C1 (stereo unspecified)", "readout-value": 6.56}
{"compound": "O=C(NCc1cnn2cccnc12)C1CC(=O)N(Cc2cccnc2)C1 (stereo unspecified)", "readout-value": 8.21}
{"compound": "COc1ccccc1CC1CCCN(C(=O)c2n[nH]c3c2CCC3)C1 (stereo unspecified)", "readout-value": 13.3}
{"compound": "O=C(CCCn1cncn1)N1CCCC1c1noc(C2CC2)n1 (stereo unspecified)", "readout-value": -31.5}
{"compound": "COCC1CN(C(=O)Cc2cccs2)Cc2nnn(CC3CC3)c21 (stereo unspecified)", "readout-value": 5.98}
{"compound": "Cc1ccc(C(=O)NC2CCN(Cc3noc(C(C)C)n3)CC2)s1", "readout-value": -10.7}
{"compound": "CCOc1ccc(Br)cc1-c1cc(N)[nH]n1", "readout-value": -2.97}
{"compound": "CC(C)n1ccnc1C1CCCN(c2ccncc2F)C1 (stereo unspecified)", "readout-value": -4.96}
{"compound": "O=C(CCN1CCCC1c1cccc2c1OCCO2)N1CCCCC1 (stereo unspecified)", "readout-value": 2.43}
